Biological target: transactivating tegument protein VP16 (Human herpesvirus 1), as a GAL4-VP16 activation-domain luciferase reporter
Assay: VP16 transactivation inhibitor potency, dose response, counter-screen for SRC3 inhibitor project, cell-based, luminescence, high throughput, SRC3 series (AID 602167)
Details: VP16 transactivation luciferase reporter cells
Active and inactive are the calls of the source. The rule behind the calls is not given here.
ENDPOINT_LABEL: IC50

INSERT INTO results (molecule, result) VALUES
  ('CS(=O)c1nc(-c2ccc(Br)cc2)cc(-c2ccccc2)c1C#N (stereo unspecified)', 'inactive'),
  ('COc1cc(NS(C)(=O)=O)ccc1Nc1c2ccccc2nc2ccccc12', '> 35.9 µM (inactive)'),
  ('CC(=O)OCCN1c2ccccc2Sc2cnccc21', '6.3 µM'),
  ('CCc1nc(N)nc(N)c1-c1ccc(Cl)c([N+](=O)[O-])c1', '> 35.8 µM (inactive)'),
  ('CCn1c2ccccc2c2cnc(N=CN(C)C)c(C#N)c21', 'inactive'),
  ('O=C(OCc1ccccc1)c1ccc(NCc2cc(O)ccc2O)cc1', '5.95 µM'),
  ('Cn1cnc([N+](=O)[O-])c1Sc1nc(N)nc2c1ncn2C1OC(CO)C(O)C1O (stereo unspecified)', '7.47 µM'),
  ('C=CCn1c(C)cc(C(=O)COc2ccc(C)nc2[N+](=O)[O-])c1C', 'inactive'),
  ('CN(C)S(=O)(=O)c1ccc(N2CCN(S(=O)(=O)c3ccc(F)cc3)CC2)c(Cl)c1', '9.39 µM'),
  ('O=C(Nc1cccc(C(F)(F)F)c1)Nc1nnc([C@@H]2C[C@H](O)[C@@H](CO)O2)s1', '6.98 µM'),
  ('Cc1ccc(C2=NN(C(=O)CCl)C(c3cccs3)C2)o1 (stereo unspecified)', 'inactive');

---

Target: transactivating tegument protein VP16 (Human herpesvirus 1), as a GAL4-VP16 activation-domain luciferase reporter
Experiment: VP16 transactivation inhibitor potency, dose response, counter-screen for SRC3 inhibitor project, cell-based, luminescence, high throughput, SRC3 series (AID 602167)
Conditions: VP16 transactivation luciferase reporter cells
The source made the active and inactive calls. No rule for the calls is given here.
Outcomes: active, inactive

INSERT INTO assay_data (compound, group) VALUES
  ('O=C(Nc1ccc(OCC(=O)N2CCOCC2)cc1)c1cncc(Br)c1', 'inactive'),
  ('C=C1C(=O)[C@]23C[C@H]1CCC2[C@@]1(C)C(C[C@@H]3O)[C@](C)(C(=O)OC)CC[C@@H]1O (stereo not given in full)', 'active'),
  ('Cc1ccc(N=c2c([N+](=O)[O-])nn(-c3ccc4c(c3)OCCO4)n2O)cc1F', 'inactive'),
  ('COc1ccc2[nH]c(=O)c(CN(CCN3CCCC3)C(=O)Nc3ccccc3Cl)cc2c1', 'inactive'),
  ('COc1cccc(-c2nnc3sc(C4CCCCC4)nn23)c1', 'active');

---

Molecular target: transactivating tegument protein VP16 (Human herpesvirus 1), as a GAL4-VP16 activation-domain luciferase reporter
Experiment: VP16 transactivation inhibitor potency, dose response, counter-screen for SRC3 inhibitor project, cell-based, luminescence, high throughput, SRC3 series (AID 602167)
Settings: VP16 transactivation luciferase reporter cells
Active and inactive are the calls of the source. How the calls were made is not given here.
Labels: active, inactive

INSERT INTO results (molecule, group) VALUES
  ('CCOc1ccccc1-n1c(SCC(=O)Nc2ccccc2C(=O)O)nc2ccccc2c1=O', 'inactive'),
  ('S=C(Nc1ccccc1)Nc1ccc(OCc2ccc(Cl)cc2Cl)cc1', 'active'),
  ('O=C(CC1CS(=O)(=O)CC1CC(=O)Nc1ccc2c(c1)OCCO2)Nc1ccc2c(c1)OCCO2 (centres undefined)', 'inactive'),
  ('CCCC(=O)NC(c1ccc(Cl)cc1Cl)c1ccc2cccnc2c1O (centres undefined)', 'active');
